Assay: Solubility in FaSSIF
Settings: 23 °C, pH 6.5, fassif, thermodynamic from solid
measured property: solubility at 2 h
Note: a bare number is incomplete; add the unit.

**Query** Identify measured solubility at 2 h associated with COC(=O)N[C@H](C(=O)N[C@@H](Cc1ccc(C#Cc2cnc(N3CC4CCC(C3)N4C3COC3)nc2)cc1)[C@H](CN(Cc1c(F)cc(-c2ccn(C(F)F)n2)cc1F)NC(=O)[C@@H](NC(=O)OC)C(C)(C)C(F)(F)F)OC(=O)OCOC(=O)CC(C)(C)c1c(CC(=O)NCP(=O)(O)O)cc(C)cc1OP(=O)(O)O)C(C)(C)C(F)(F)F [Example 69]
**Result** 4950 µg/mL

**Query** Identify measured solubility at 2 h associated with COC(=O)N[C@H](C(=O)N[C@@H](Cc1ccc(C#Cc2cnc(N3CC4CCC(C3)N4C3COC3)nc2)cc1)[C@H](CN(Cc1c(F)cc(-c2ccn(C(F)F)n2)cc1F)NC(=O)[C@@H](NC(=O)OC)C(C)(C)C(F)(F)F)OC(=O)CC(C)(C)c1c(CC(=O)N[C@@]2(C(=O)O)CCOC2)cc(C)cc1OP(=O)(O)O)C(C)(C)C(F)(F)F [Example 29]
**Result** 4970 µg/mL
